Origin of measurements: patent US20070117743A1

What CC50 was measured for each of the following?
test system: A-549; assay: SRB colorimetric assay of cell growth and viability, A-549; format: cell-based, human; details: read-out: LC50 (lethal concentration at 50%); A-549 cells, 48 hours exposure, SRB
Where a SMILES comes first, the peptide text is derived from it. Bridges are numbered along the chain shown (N, C = ends). [ ]: non-standard residue; d: D form. The star is where a group is joined. d(aIle) = CC[C@H](C)[C@@H](N)C(=O)O; d(aThr) = C[C@@H](O)[C@@H](N)C(=O)O; Hexanoyl(5-Me) = CC(C)CCCC(=O)*; d(hCys) = N[C@H](CCS)C(=O)O; Orn = NCCC[C@H](N)C(=O)O; Dhb = C/C=C(\N)C(=O)O
Output spec: scalar in µM, unitless text.

What value of CC50 has been recorded for this entry: C/C=C1\NC(=O)[C@H](Cc2ccccc2)NC(=O)[C@@H](C(C)C)NC(=O)[C@@H]([C@@H](C)CC)NC(=O)[C@H](NC(=O)[C@H](NC(=O)[C@@H](CCCN)NC(=O)[C@@H]2CCCN2C(=O)[C@H](NC(=O)[C@@H](NC(=O)[C@@H](NC(=O)[C@H](NC(=O)CCCC(C)C)C(C)C)[C@@H](C)O)C(C)C)C(C)C)[C@@H](C)CC)[C@@H](C)OC(=O)[C@H](C(C)C)NC1=O [Compound 106, [D-Orn^8, L-Pro^9]-KF]
6.77

Could you tell me which CC50 is on file for C/C=C1\NC(=O)[C@H](Cc2ccccc2)NC(=O)[C@@H](C(C)C)NC(=O)[C@@H]([C@@H](C)CC)NC(=O)[C@H](NC(=O)[C@H](NC(=O)[C@H](CCCN)NC(=O)[C@H]2CCCN2C(=O)[C@H](NC(=O)[C@@H](NC(=O)[C@@H](NC(=O)[C@H](NC(=O)[C@]23CCC(C)(C)C[C@H]2C2=CC[C@@H]4[C@@]5(C)C[C@@H](O)[C@H](O)C(C)(C)[C@@H]5CC[C@@]4(C)[C@]2(C)CC3)C(C)C)[C@@H](C)O)C(C)C)C(C)C)[C@@H](C)CC)[C@@H](C)OC(=O)[C@H](C(C)C)NC1=O [Compound 101, [AM^14]-KF] ?
5.49

Recorded CC50 for C/C=C1\NC(=O)[C@H](Cc2ccccc2)NC(=O)[C@@H](C(C)C)NC(=O)[C@@H]([C@@H](C)CC)NC(=O)[C@H](NC(=O)[C@@H](CS)NC(=O)[C@H](CCCN)NC(=O)[C@H]2CCCN2C(=O)[C@@H](CS)NC(=O)[C@@H](NC(=O)[C@@H](NC(=O)[C@H](NC(=O)CCCC(C)C)C(C)C)[C@@H](C)O)C(C)C)[C@@H](C)OC(=O)[C@H](C(C)C)NC1=O [Compound 108, [D-Cys^7, D-Cys^10]-KF] ({Hexanoyl(5-Me)}-[dV]TV[dC][dP][Orn][dC][d(aThr)][d(aIle)][dV]F[Dhb]V; ester 8-C) , please?
6.53

What does the record list as CC50 for C/C=C1\NC(=O)[C@H](Cc2ccccc2)NC(=O)[C@@H](C(C)C)NC(=O)[C@@H]([C@@H](C)CC)NC(=O)[C@H](NC(=O)[C@@H](CCS)NC(=O)[C@H](CCCN)NC(=O)[C@H]2CCCN2C(=O)[C@@H](CCS)NC(=O)[C@@H](NC(=O)[C@@H](NC(=O)[C@H](NC(=O)CCCC(C)C)C(C)C)[C@@H](C)O)C(C)C)[C@@H](C)OC(=O)[C@H](C(C)C)NC1=O [Compound 109, [D-homoCys^7, D-homoCys^10]-KF] ({Hexanoyl(5-Me)}-[dV]TV[d(hCys)][dP][Orn][d(hCys)][d(aThr)][d(aIle)][dV]F[Dhb]V; ester 8-C) ?
6.26

What value of CC50 has been reported for the following compound? C/C=C1\NC(=O)[C@H](Cc2ccccc2)NC(=O)[C@@H](C(C)C)NC(=O)[C@@H]([C@@H](C)CC)NC(=O)[C@H](NC(=O)[C@H](NC(=O)[C@H](CCCN)NC(=O)[C@H]2CCCN2C(=O)[C@H](NC(=O)[C@@H](NC(=O)[C@@H](NC(=O)[C@H](NC(=O)CCCC(C)C)C(C)C)[C@@H](C)O)C(C)C)C(C)C)[C@@H](C)CC)[C@@H](C)OC(=O)[C@@H](C(C)C)NC1=O [Compound 110, [D-Val^1]-KF]
1.63

----------
test system: LNCaP; experiment: SRB colorimetric assay of cell growth and viability, LNCaP; assay type: cell-based, human; conditions: 48 hours exposure; read-out: LC50 LN-caP
Where a SMILES comes first, the peptide text is derived from it. Bridges are numbered along the chain shown (N, C = ends). [ ]: non-standard residue; d: D form. The star is where a group is joined. d(aIle) = CC[C@H](C)[C@@H](N)C(=O)O; d(aThr) = C[C@@H](O)[C@@H](N)C(=O)O; Hexanoyl(5-Me) = CC(C)CCCC(=O)*; Orn = NCCC[C@H](N)C(=O)O; Dhb = C/C=C(\N)C(=O)O
Consider the following compounds; for each one, report its CC50.
Express it in µM; write the number only.

Quick one: CC50 for C/C=C1\NC(=O)[C@H](Cc2ccccc2)NC(=O)[C@@H](C(C)C)NC(=O)[C@@H](C(C)C)NC(=O)[C@H](NC(=O)[C@H](NC(=O)[C@H](CCCN)NC(=O)[C@H]2CCCN2C(=O)[C@H](NC(=O)[C@@H](NC(=O)[C@@H](NC(=O)[C@H](NC(=O)CCCC(C)C)C(C)C)[C@@H](C)O)C(C)C)C(C)C)C(C)C)[C@@H](C)OC(=O)[C@H](C(C)C)NC1=O [Compound 12, [D-Val^5, D-Val^7]-KF] ({Hexanoyl(5-Me)}-[dV]TV[dV][dP][Orn][dV][d(aThr)][dV][dV]F[Dhb]V; ester 8-C) ?
5.14

Would you kindly share the measured CC50 for C/C=C1\NC(=O)[C@H](Cc2ccccc2)NC(=O)[C@@H](C(C)C)NC(=O)[C@@H]([C@@H](C)CC)NC(=O)[C@H](NC(=O)[C@H](NC(=O)[C@H](CCCN)NC(=O)[C@H]2CCCN2C(=O)[C@H](NC(=O)[C@H](CC(C)C)NC(=O)[C@@H](NC(=O)[C@H](NC(=O)CCCC(C)C)C(C)C)[C@@H](C)O)C(C)C)[C@@H](C)CC)[C@@H](C)OC(=O)[C@H](C(C)C)NC1=O [Compound 45, [Leu^11]-KF] ({Hexanoyl(5-Me)}-[dV]TL[dV][dP][Orn][d(aIle)][d(aThr)][d(aIle)][dV]F[Dhb]V; ester 8-C) ?
5.44

----------
system: SK-MEL-28; assay: SRB colorimetric assay of cell growth and viability, SK-MEL-28; assay type: cell-based, human; conditions: MEL-28; 48 hours exposure; read-out: LC50 MEL-28
Where a SMILES comes first, the peptide text is derived from it. Bridges are numbered along the chain shown (N, C = ends). [ ]: non-standard residue; d: D form. The star is where a group is joined. d(aIle) = CC[C@H](C)[C@@H](N)C(=O)O; d(aThr) = C[C@@H](O)[C@@H](N)C(=O)O; Hexanoyl(5-Me) = CC(C)CCCC(=O)*; Orn = NCCC[C@H](N)C(=O)O; Dhb = C/C=C(\N)C(=O)O
quantity: CC50 (µM)
Answer with a number only, understood to be in µM.

// CC50 lookup, key: C/C=C1\NC(=O)[C@H](Cc2ccccc2)NC(=O)[C@@H](C(C)C)NC(=O)[C@@H]([C@@H](C)CC)NC(=O)[C@H](NC(=O)[C@H](NC(=O)[C@H](CCCN)NC(=O)[C@H]2CCCN2C(=O)[C@H](NC(=O)[C@@H](NC(=O)[C@H](C)NC(=O)[C@H](NC(=O)CCCC(C)C)C(C)C)C(C)C)C(C)C)[C@@H](C)CC)[C@@H](C)OC(=O)[C@H](C(C)C)NC1=O [Compound 112, [Ala^12]-KF] ({Hexanoyl(5-Me)}-[dV]AV[dV][dP][Orn][d(aIle)][d(aThr)][d(aIle)][dV]F[Dhb]V; ester 8-C)
5.43

----------
Exercise: for every item that follows, state its recorded CC50.
test system: LoVo; assay: SRB colorimetric assay of cell growth and viability, LoVo; format: cell-based, human; conditions: LOVO; 48 hours exposure; read-out: LC50 LOVO
Where a SMILES comes first, the peptide text is derived from it. Bridges are numbered along the chain shown (N, C = ends). [ ]: non-standard residue; d: D form. The star is where a group is joined. Bip = N[C@@H](Cc1ccc(-c2ccccc2)cc1)C(=O)O; d(aIle) = CC[C@H](C)[C@@H](N)C(=O)O; d(aThr) = C[C@@H](O)[C@@H](N)C(=O)O; hCha = N[C@@H](CCC1CCCCC1)C(=O)O; Hexanoyl(5-Me) = CC(C)CCCC(=O)*; Orn = NCCC[C@H](N)C(=O)O; Dhb = C/C=C(\N)C(=O)O
Your answer should be a plain number; it is taken to be in nM.

Using the record for C/C=C1\NC(=O)[C@H](CCC2CCCCC2)NC(=O)[C@@H](C(C)C)NC(=O)[C@@H]([C@@H](C)CC)NC(=O)[C@H](NC(=O)[C@H](NC(=O)[C@H](CCCN)NC(=O)[C@H]2CCCN2C(=O)[C@H](NC(=O)[C@@H](NC(=O)[C@@H](NC(=O)[C@H](NC(=O)CCCC(C)C)C(C)C)[C@@H](C)O)C(C)C)C(C)C)[C@@H](C)CC)[C@@H](C)OC(=O)[C@H](C(C)C)NC1=O [Compound 63] ({Hexanoyl(5-Me)}-[dV]TV[dV][dP][Orn][d(aIle)][d(aThr)][d(aIle)][dV][hCha][Dhb]V; ester 8-C) , report its CC50.
469

Item under review: C/C=C1\NC(=O)[C@H](Cc2ccc(-c3ccccc3)cc2)NC(=O)[C@@H](C(C)C)NC(=O)[C@@H]([C@@H](C)CC)NC(=O)[C@H](NC(=O)[C@H](NC(=O)[C@H](CCCN)NC(=O)[C@H]2CCCN2C(=O)[C@H](NC(=O)[C@@H](NC(=O)[C@@H](NC(=O)[C@H](NC(=O)CCCC(C)C)C(C)C)[C@@H](C)O)C(C)C)C(C)C)[C@@H](C)CC)[C@@H](C)OC(=O)[C@H](C(C)C)NC1=O [Compound 86, [Bip^3]-KF] ({Hexanoyl(5-Me)}-[dV]TV[dV][dP][Orn][d(aIle)][d(aThr)][d(aIle)][dV][Bip][Dhb]V; ester 8-C) . Reported CC50?
4680
